Parameter pIC50: see the listing below.
- Test target: Epidermal growth factor receptor (Homo sapiens, UniProt P00533, T790M)
- Sequence (P00533 25-1210 T790M limits assumed): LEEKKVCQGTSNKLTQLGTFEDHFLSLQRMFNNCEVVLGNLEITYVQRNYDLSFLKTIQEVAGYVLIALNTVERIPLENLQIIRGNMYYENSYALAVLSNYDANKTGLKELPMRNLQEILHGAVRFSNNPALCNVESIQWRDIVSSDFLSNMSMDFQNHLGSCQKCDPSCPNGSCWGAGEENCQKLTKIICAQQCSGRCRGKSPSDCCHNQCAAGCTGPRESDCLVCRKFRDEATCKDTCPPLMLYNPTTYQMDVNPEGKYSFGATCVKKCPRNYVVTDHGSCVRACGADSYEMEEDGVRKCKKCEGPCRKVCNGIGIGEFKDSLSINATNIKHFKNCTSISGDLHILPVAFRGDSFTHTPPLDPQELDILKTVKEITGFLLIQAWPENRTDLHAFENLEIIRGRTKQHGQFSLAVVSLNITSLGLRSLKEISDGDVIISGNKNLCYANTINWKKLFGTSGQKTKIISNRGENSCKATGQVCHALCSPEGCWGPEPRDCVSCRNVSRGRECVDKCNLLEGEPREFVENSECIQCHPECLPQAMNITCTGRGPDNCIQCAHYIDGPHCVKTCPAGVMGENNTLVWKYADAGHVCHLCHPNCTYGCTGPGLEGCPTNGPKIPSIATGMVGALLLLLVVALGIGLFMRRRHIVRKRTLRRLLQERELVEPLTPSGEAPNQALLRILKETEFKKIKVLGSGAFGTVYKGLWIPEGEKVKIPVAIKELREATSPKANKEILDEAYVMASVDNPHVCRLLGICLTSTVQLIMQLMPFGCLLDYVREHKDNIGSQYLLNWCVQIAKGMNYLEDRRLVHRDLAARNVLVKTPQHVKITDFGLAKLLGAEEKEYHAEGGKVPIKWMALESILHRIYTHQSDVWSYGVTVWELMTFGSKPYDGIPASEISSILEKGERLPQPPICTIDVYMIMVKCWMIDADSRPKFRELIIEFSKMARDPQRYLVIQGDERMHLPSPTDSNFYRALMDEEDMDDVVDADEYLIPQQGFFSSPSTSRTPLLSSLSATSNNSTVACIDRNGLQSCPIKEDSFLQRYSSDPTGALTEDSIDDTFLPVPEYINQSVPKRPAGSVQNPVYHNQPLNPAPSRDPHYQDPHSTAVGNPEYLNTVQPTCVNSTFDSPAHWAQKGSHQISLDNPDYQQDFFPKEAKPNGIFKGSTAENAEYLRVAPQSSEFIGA
- Assay protocol: Inhibition of N-terminal GST-tagged human recombinant EGFR T790M mutant (668 to 1210 residues) expressed in baculovirus expression system by Z'-LYTE kinase assay
When answering, recall that pIC50 equals minus log10 of the concentration in mol/L, and write that number alone.

C#Cc1cccc(Nc2ncnc3cc(OC)c(OCCCCCCCN/C(=N\C#N)Nc4cccnc4)cc23)c1 = 6.35
C#Cc1cccc(Nc2ncnc3cc(OC)c(OCCCCCCN/C(=N\C#N)Nc4ccncc4)cc23)c1 = 6.49

Could you share which pIC50 value was measured for C#Cc1cccc(Nc2ncnc3cc(OC)c(OCCCCCCN/C(=N\C#N)Nc4cccnc4)cc23)c1 ?
6.49

Could you share which pIC50 value was measured for C#Cc1cccc(Nc2ncnc3cc(OC)c(OCCCCCCCN/C(=N\C#N)Nc4ccncc4)cc23)c1 ?
6.24

Could you share which pIC50 value was measured for C#Cc1cccc(Nc2ncnc3cc(OC)c(OCCCCCN/C(=N\C#N)Nc4ccncc4)cc23)c1 ?
6.82

Could you share which pIC50 value was measured for C#Cc1cccc(Nc2ncnc3cc(OC)c(OCCCCCN/C(=N\C#N)Nc4cccnc4)cc23)c1 ?
6.64

----------
- Test system: Huh-7
- Assay protocol: Antiproliferative activity against human Huh-7 cells assessed as inhibition of cell growth after 72 hrs by CCK8 assay
- Format: functional, cell-based
Parameter: GI50 (nM)
# number only, unit nM dropped from output

Before answering, review these 5 worked examples.
C#Cc1cccc(Nc2ncnc3cc(OC)c(OCCCCCN/C(=N\C#N)Nc4ccncc4)cc23)c1 = 1.64
C#Cc1cccc(Nc2ncnc3cc(OC)c(OCCCCCN/C(=N\C#N)Nc4cccnc4)cc23)c1 = 62.9
C#Cc1cccc(Nc2ncnc3cc(OC)c(OCCCCCCN/C(=N\C#N)Nc4ccncc4)cc23)c1 = 1.87
C#Cc1cccc(Nc2ncnc3cc(OC)c(OCCCCCCCN/C(=N\C#N)Nc4ccncc4)cc23)c1 = 1.81
C#Cc1cccc(Nc2ncnc3cc(OC)c(OCCCCCCCN/C(=N\C#N)Nc4cccnc4)cc23)c1 = 9.94

Could you share which GI50 value was measured for CC(=O)O[C@H]1C(=O)[C@@]2(C)[C@H]([C@H](OC(=O)c3ccccc3)[C@]3(O)C[C@H](OC(=O)[C@H](O)[C@@H](NC(=O)c4ccccc4)c4ccccc4)C(C)=C1C3(C)C)[C@]1(OC(C)=O)CO[C@@H]1C[C@@H]2O ?
7.41

----------
- Test target: Epidermal growth factor receptor (Homo sapiens, UniProt P00533, L858R)
- Sequence (P00533 25-1210 L858R limits assumed): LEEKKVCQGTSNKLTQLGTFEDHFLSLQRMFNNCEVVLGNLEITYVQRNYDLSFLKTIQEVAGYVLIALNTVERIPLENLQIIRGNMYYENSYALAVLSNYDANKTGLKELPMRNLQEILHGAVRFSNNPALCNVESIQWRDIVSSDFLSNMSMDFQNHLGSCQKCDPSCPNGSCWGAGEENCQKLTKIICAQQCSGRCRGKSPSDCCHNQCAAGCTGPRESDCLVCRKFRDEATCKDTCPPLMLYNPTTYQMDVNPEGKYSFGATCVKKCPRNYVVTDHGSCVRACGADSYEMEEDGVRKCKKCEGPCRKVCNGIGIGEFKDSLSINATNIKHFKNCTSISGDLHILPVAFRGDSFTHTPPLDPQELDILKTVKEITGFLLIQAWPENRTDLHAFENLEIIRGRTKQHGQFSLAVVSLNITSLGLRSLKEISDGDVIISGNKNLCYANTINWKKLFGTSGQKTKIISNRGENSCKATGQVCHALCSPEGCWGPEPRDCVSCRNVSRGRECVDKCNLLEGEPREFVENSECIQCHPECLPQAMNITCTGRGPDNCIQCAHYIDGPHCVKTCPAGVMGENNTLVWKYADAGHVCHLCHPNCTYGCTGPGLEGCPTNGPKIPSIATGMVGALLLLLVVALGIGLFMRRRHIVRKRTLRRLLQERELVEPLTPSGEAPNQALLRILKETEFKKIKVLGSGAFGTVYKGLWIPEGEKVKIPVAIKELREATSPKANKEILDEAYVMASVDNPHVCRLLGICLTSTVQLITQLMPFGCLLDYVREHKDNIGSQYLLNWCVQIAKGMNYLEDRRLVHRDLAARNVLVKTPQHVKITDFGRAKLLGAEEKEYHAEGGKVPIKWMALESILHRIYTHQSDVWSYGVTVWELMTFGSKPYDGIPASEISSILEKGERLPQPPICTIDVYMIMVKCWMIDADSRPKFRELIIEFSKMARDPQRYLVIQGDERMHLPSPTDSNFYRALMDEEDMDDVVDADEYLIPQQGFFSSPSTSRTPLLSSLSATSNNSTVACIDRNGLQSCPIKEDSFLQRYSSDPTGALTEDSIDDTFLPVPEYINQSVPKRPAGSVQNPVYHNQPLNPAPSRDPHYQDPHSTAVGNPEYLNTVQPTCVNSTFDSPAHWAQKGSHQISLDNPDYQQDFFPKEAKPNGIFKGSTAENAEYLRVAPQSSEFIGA
- Assay protocol: Inhibition of N-terminal GST-tagged human recombinant EGFR L858R mutant (668 to 1210 residues) expressed in baculovirus expression system by Z'-LYTE kinase assay
Parameter: IC50 (nM)
# number only, unit nM dropped from output

Before answering, review these 5 worked examples.
C#Cc1cccc(Nc2ncnc3cc(OC)c(OCCCCCN/C(=N\C#N)Nc4cccnc4)cc23)c1 = 0.41
C#Cc1cccc(Nc2ncnc3cc(OC)c(OCCCCCCCN/C(=N\C#N)Nc4cccnc4)cc23)c1 = 0.48
C#Cc1cccc(Nc2ncnc3cc(OC)c(OCCCCCCN/C(=N\C#N)Nc4cccnc4)cc23)c1 = 0.38
C#Cc1cccc(Nc2ncnc3cc(OC)c(OCCCCCCCN/C(=N\C#N)Nc4ccncc4)cc23)c1 = 0.46
C#Cc1cccc(Nc2ncnc3cc(OC)c(OCCCCCN/C(=N\C#N)Nc4ccncc4)cc23)c1 = 0.26

Value wanted: IC50 (Epidermal growth factor receptor (Homo sapiens, UniProt P00533, L858R)) of entry C#Cc1cccc(Nc2ncnc3cc(OC)c(OCCCCCCN/C(=N\C#N)Nc4ccncc4)cc23)c1
0.32

----------
- Test target: Epidermal growth factor receptor (Homo sapiens, UniProt P00533)
- Sequence (P00533 whole entry, the tested form may be a part): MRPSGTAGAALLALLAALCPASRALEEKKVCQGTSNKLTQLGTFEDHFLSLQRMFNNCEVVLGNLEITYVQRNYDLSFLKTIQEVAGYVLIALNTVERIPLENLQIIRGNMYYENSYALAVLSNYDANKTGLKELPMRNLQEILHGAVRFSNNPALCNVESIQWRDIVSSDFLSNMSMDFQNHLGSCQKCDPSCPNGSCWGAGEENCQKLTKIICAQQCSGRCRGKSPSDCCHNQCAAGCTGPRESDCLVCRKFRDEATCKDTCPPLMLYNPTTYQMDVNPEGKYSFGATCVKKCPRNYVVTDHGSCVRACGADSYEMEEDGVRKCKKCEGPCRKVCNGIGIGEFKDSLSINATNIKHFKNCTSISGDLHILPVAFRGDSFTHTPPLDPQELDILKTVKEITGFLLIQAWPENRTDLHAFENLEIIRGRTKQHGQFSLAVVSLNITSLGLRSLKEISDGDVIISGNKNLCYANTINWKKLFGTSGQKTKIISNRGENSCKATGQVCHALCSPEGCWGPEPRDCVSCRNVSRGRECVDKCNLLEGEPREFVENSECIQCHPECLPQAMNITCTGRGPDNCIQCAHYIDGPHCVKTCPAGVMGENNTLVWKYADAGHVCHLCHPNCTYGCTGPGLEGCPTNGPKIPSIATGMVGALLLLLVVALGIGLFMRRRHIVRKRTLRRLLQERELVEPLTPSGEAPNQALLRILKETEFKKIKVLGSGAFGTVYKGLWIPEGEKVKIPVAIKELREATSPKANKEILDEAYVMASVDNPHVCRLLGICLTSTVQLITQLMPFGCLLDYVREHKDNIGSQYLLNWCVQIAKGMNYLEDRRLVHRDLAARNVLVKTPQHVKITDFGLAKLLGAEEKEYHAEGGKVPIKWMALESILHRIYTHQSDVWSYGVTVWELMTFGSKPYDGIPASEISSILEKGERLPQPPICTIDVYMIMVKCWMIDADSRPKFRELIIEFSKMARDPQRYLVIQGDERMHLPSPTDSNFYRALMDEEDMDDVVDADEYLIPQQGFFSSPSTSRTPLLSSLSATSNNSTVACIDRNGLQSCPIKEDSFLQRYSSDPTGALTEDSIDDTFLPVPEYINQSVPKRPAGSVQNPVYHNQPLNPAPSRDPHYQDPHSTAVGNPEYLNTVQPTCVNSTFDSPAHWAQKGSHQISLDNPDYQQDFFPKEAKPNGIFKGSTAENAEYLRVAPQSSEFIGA
- Assay protocol: Inhibition of N-terminal GST-tagged human recombinant EGFR cytoplasmic domain (668 to 1210 residues) expressed in baculovirus expression system by Z'-LYTE kinase assay
Parameter: pIC50
When answering, recall that pIC50 equals minus log10 of the concentration in mol/L, and write that number alone.

Before answering, review these 2 worked examples.
C#Cc1cccc(Nc2ncnc3cc(OC)c(OCCCCCN/C(=N\C#N)Nc4cccnc4)cc23)c1 = 9.28
C#Cc1cccc(Nc2ncnc3cc(OC)c(OCCCCCCCN/C(=N\C#N)Nc4cccnc4)cc23)c1 = 9.27

Value wanted: pIC50 (Epidermal growth factor receptor (Homo sapiens, UniProt P00533)) of entry C#Cc1cccc(Nc2ncnc3cc(OC)c(OCCCCCCN/C(=N\C#N)Nc4ccncc4)cc23)c1
9.46

----------
- Test target: Epidermal growth factor receptor (Homo sapiens, UniProt P00533, L861Q)
- Sequence (P00533 25-1210 L861Q limits assumed): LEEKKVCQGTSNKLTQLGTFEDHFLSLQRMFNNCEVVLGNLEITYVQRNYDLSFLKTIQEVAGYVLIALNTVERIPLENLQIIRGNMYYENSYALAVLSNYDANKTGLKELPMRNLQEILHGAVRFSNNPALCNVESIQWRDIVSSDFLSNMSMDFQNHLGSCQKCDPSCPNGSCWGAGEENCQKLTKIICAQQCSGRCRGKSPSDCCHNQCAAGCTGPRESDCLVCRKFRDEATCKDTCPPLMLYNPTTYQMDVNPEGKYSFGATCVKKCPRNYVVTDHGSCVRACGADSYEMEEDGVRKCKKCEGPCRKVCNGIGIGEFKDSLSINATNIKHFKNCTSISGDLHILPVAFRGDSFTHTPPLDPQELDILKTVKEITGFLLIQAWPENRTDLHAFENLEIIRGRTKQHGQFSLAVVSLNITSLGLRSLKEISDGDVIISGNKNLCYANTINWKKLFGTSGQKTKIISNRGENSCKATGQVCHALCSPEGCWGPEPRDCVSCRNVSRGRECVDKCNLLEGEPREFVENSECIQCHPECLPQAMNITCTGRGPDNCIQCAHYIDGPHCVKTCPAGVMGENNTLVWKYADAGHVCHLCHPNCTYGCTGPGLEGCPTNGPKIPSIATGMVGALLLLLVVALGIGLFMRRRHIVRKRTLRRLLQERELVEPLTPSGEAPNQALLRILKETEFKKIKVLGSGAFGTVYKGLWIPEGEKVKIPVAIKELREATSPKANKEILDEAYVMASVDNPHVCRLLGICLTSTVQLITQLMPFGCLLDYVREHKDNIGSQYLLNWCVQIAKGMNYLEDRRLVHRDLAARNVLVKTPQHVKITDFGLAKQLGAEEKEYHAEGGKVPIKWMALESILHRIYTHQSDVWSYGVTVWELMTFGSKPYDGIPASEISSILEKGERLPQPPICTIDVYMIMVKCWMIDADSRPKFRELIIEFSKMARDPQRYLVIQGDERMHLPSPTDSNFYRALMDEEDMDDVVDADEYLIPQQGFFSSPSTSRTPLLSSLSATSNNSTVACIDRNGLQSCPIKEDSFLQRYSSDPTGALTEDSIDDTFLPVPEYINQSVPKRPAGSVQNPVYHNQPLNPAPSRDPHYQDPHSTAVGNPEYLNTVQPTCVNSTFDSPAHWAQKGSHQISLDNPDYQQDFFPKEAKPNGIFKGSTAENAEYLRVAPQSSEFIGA
- Assay protocol: Inhibition of N-terminal GST-tagged human recombinant EGFR L861Q mutant (668 to 1210 residues) expressed in baculovirus expression system by Z'-LYTE kinase assay
Parameter: pIC50
When answering, recall that pIC50 equals minus log10 of the concentration in mol/L, and write that number alone.

Before answering, review these 5 worked examples.
C#Cc1cccc(Nc2ncnc3cc(OC)c(OCCCCCN/C(=N\C#N)Nc4ccncc4)cc23)c1 = 9.59
C#Cc1cccc(Nc2ncnc3cc(OC)c(OCCCCCCCN/C(=N\C#N)Nc4cccnc4)cc23)c1 = 9.31
C#Cc1cccc(Nc2ncnc3cc(OC)c(OCCCCCCCN/C(=N\C#N)Nc4ccncc4)cc23)c1 = 9.26
C#Cc1cccc(Nc2ncnc3cc(OC)c(OCCCCCN/C(=N\C#N)Nc4cccnc4)cc23)c1 = 9.34
C#Cc1cccc(Nc2ncnc3cc(OC)c(OCCCCCCN/C(=N\C#N)Nc4cccnc4)cc23)c1 = 9.42

Could you now look at the following compound, please?
Value wanted: pIC50 (Epidermal growth factor receptor (Homo sapiens, UniProt P00533, L861Q)) of entry C#Cc1cccc(Nc2ncnc3cc(OC)c(OCCCCCCN/C(=N\C#N)Nc4ccncc4)cc23)c1
9.44

----------
- Test target: Epidermal growth factor receptor (Homo sapiens, UniProt P00533)
- Assay protocol: Inhibition of N-terminal GST-tagged human recombinant EGFR cytoplasmic domain (668 to 1210 residues) expressed in baculovirus expression system by Z'-LYTE kinase assay
Parameter: pIC50
When answering, recall that pIC50 equals minus log10 of the concentration in mol/L, and write that number alone.

Before answering, review these 2 worked examples.
C#Cc1cccc(Nc2ncnc3cc(OC)c(OCCCCCCCN/C(=N\C#N)Nc4ccncc4)cc23)c1 = 9.33
C#Cc1cccc(Nc2ncnc3cc(OC)c(OCCCCCCN/C(=N\C#N)Nc4cccnc4)cc23)c1 = 9.49

Could you share which pIC50 value was measured for C#Cc1cccc(Nc2ncnc3cc(OC)c(OCCCCCN/C(=N\C#N)Nc4ccncc4)cc23)c1 ?
9.64
